The values you see were collected from paper PMC11480844.

B1: H2-Kb / B3 (parent)
chain 1: GQQVKQSSPSLTVQEGGISILNCDYENDMFDYFAWYKKYPDNSPTLLISVRSNVDKREDGRLTVFLNKSGKHFSLHITASQPEDTAVYLCAAGNTGYQNFYFGKGTSLTVIP
chain 2: DSGVVQSPRHIIKEKGGRSVLTCIPISGHSNVVWYQQTLGKELKFLIQHYEKVERDKGFLPSRFSVQQFDDYHSEMNMSALELEDSAMYFCASSSLQGARNQAPLFGEGTRLSVL
chain 3: not shown
chain 4: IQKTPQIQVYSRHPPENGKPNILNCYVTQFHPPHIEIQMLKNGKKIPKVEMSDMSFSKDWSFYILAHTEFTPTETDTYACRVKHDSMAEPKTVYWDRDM
chain 5: SIINFEKL

Variants of: B1
MEASUREMENT_NOTES: % of reporter cells activated (NFAT-GFP), raw; note: test concentration or dose not given here
DETAILS: with B3; scale: % of reporter cells activated
The threshold is inclusive: ratio to parent of exactly 0.4 counts as 1; values below receive -1.

chain 5 I3G; -1
chain 5 F5E; -1
chain 5 I2S; 1
chain 5 F5Q; -1
chain 5 N4Q; -1
chain 5 K7M; -1
chain 5 I2Y; -1
chain 5 F5V; -1
chain 5 I2E; 1
chain 5 N4H; -1

Is ratio to parent at least 0.4? Consider chain 5 L8H
1

Is ratio to parent at least 0.4? Consider chain 5 E6P
1
